Biological target: b-Raf (V600E) (Homo sapiens (Human), UniProt P15056, V600E)
Sequence (P15056 whole entry V600E): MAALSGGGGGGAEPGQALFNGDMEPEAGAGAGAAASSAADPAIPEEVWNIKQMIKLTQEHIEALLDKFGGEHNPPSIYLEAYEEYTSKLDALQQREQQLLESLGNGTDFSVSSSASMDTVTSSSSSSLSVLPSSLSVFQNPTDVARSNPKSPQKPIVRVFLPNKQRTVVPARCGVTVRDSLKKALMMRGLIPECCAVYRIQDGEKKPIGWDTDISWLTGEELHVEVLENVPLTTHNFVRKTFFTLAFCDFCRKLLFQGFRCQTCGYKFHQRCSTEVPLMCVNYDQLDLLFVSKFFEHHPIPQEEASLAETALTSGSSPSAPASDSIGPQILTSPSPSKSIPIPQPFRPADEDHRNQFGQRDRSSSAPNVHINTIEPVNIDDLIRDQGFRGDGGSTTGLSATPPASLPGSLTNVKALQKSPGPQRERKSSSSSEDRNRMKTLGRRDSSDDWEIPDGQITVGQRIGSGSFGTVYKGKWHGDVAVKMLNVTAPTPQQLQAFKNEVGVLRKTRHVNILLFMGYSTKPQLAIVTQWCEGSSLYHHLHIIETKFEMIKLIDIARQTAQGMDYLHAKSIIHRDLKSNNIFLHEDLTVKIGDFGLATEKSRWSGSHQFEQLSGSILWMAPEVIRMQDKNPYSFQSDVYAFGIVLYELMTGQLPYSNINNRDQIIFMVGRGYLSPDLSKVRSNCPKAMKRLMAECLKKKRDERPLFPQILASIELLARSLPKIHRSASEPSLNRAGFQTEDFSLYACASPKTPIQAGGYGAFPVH
Conditions: read-out: b-Raf IC-50; AlphaScreen, 60 min pre-incubation, 3 hours reaction
pIC50: −log10 of the molar value.
measure: pIC50

{"givenSmiles": "Cc1ccc(NC(=O)c2ccnc(C(F)F)c2)cc1-c1cc(N2CCOCC2)nc(N2C(=O)OC[C@@H]2C)n1", "pIC50": 8.12}

[1] CCn1c(N2CCOCC2)cc(-c2cc(NC(=O)c3ccnc(C(C)(F)F)c3)ccc2C)cc1=O
[2] Cc1ncc(NC(=O)c2ccnc(C(C)(C)F)c2)cc1-c1cncc(N2CCOCC2)n1
stdin: # query: argmin of pIC50 over 1 and 2 // return label of chosen record
stdout: 2
(2: 8.22, 1: 9.22)

* * *

Target: b-Raf (V600E) (Homo sapiens (Human), UniProt P15056, V600E)
Conditions: read-out: b-Raf IC-50; AlphaScreen, 60 min pre-incubation, 3 hours reaction
pIC50: −log10 of the molar value.
measure: pIC50

Recorded pIC50, per entry:
{"givenSmiles": "Cc1ccc(NC(=O)c2ccnc(C(C)(C)C#N)c2)cc1-c1cc(N2CCOC[C@H]2C)c(=O)n(C)n1", "pIC50": 7.80}
{"givenSmiles": "Cc1ccc(NC(=O)c2ccnc(N3CCC3)c2)cc1-c1cc(N2CCOCC2)c(=O)n(C)c1", "pIC50": 8.72}
{"givenSmiles": "CCNc1nc(-c2cc(NC(=O)c3cc(C(F)(F)F)c(=O)n(CC)c3)ccc2C)cc(N2CCOCC2)n1", "pIC50": 8.89}
{"givenSmiles": "Cc1ccc(NC(=O)c2cnnc(C(C)(C)C#N)c2)cc1-c1cc(N2CCOCC2)c(OC2CCOCC2)nn1", "pIC50": 8.89}
{"givenSmiles": "Cc1ccc(NC(=O)c2ccnc(C(C)(F)F)c2)cc1-c1cc(N2CCOC(C)(C)C2)c(=O)n(C)n1", "pIC50": 8.47}
{"givenSmiles": "Cc1ncc(C(=O)Nc2cccc(C(C)(C)O)c2)cc1-c1cc(N2CCOCC2)c(=O)n(C)c1", "pIC50": 7.00}
{"givenSmiles": "Cc1ncc(C(=O)Nc2cccc(C(C)(C)C#N)c2)cc1-c1cc(N2CCOCC2)c(=O)n(C)c1", "pIC50": 7.35}
{"givenSmiles": "Cc1ncc(NC(=O)c2cnnc(C(F)(F)F)c2)cc1-c1cc(N2CCOCC2)c(OC2CCOCC2)nn1", "pIC50": 8.57}
{"givenSmiles": "CCOc1nc(-c2cc(NC(=O)c3ccnc(C(C)(C)C#N)c3)ccc2C)cc(N2CCOCC2)n1", "pIC50": 8.47}
{"givenSmiles": "Cc1ncc(NC(=O)c2ccnc(C(C)(F)F)c2)cc1-c1cc(N2CCOCC2)n2nccc2n1", "pIC50": 8.82}

[a] COc1nnc(-c2cc(NC(=O)c3ccnc(C(F)(F)F)c3)ccc2C)cc1N1CCOCC1
[b] Cc1ncc(NC(=O)c2ccnc(C(F)F)c2)cc1-c1cc(N2CCOCC2)c(=O)n(C)n1
stdin: Out of a and b , name the one with the higher pIC50. // return label of chosen record
stdout: a

[1] Cc1ncc(NC(=O)c2cccc(C(F)(F)F)c2)cc1-c1cc(N2CCOCC2)nc(OC2CNC2)n1
[2] Cc1ccc(NC(=O)c2cccc(C(F)(F)F)c2)cc1-c1nc(N2CCOCC2)c2cccnc2n1
[3] Cc1ccc(NC(=O)c2cccc(CC#N)c2)cc1-c1cc(N2CCOCC2)c(=O)n(C)n1
stdin: Order each entry by recorded pIC50, climbing from the minimum. Your answer should be the labels, listed in the requested order.
stdout: 1, 3, 2

* * *

Target: b-Raf (V600E) (Homo sapiens (Human), UniProt P15056, V600E)
Conditions: read-out: b-Raf IC-50; Table 2; AlphaScreen, 3 hours reaction
pIC50: −log10 of the molar value.
measure: pIC50

Recorded pIC50, per entry:
{"compound": "CCOc1ncc(-c2cc(NC(=O)c3ccnc(C(C)(C)C#N)c3)cnc2C)cc1N1CCOCC1 [Example 239]", "pIC50": 8.25}
{"compound": "Cc1ncc(NC(=O)c2cccc(C(F)(F)F)c2)cc1-c1cnc(OC2CCOCC2)c(N2CCOCC2=O)c1 [Example 309]", "pIC50": 8.04}
{"compound": "Cc1ncc(NC(=O)c2ccnc(C(C)(C)C#N)c2)cc1-c1cnc(Cl)c(N2CCOCC2)c1 [Example 289]", "pIC50": 7.81}
{"compound": "Cc1ncc(NC(=O)c2ccnc(C(C)(C)C)c2)cc1-c1cc(N2CCOCC2)c(=O)n(C)c1 [Example 399]", "pIC50": 7.37}
{"compound": "CCOc1ncc(-c2cc(NC(=O)c3ccnc(C(C)(C)F)c3)cnc2C)cc1N1CCOCC1 [Example 253]", "pIC50": 8.59}
{"compound": "Cc1ccc(NC(=O)c2cccc(C(F)(F)F)c2)cc1-c1cc(N2CCOCC2)c(=O)n(C)n1 [Example 164]", "pIC50": 8.77}
{"compound": "Cc1ccc(NC(=O)c2cccc(C(F)(F)F)c2)cc1-c1cc(N2CCOCC2)cnn1 [Example 59]", "pIC50": 8.55}
{"compound": "Cc1ncc(NC(=O)c2ccnc(C(F)(F)F)c2)cc1-c1cnc(OC2CCOCC2)c(N2CCOCC2)c1 [Example 314]", "pIC50": 8.22}
{"compound": "Cc1ccc(NC(=O)c2cccc(C(F)(F)F)c2)cc1-c1cc(N2CCOCC2)ccn1 [Example 111]", "pIC50": 9.30}
{"compound": "Cc1ncc(NC(=O)c2ccnc(C(C)C)c2)cc1-c1cnc(C#N)c(N2CCOCC2)c1 [Example 251]", "pIC50": 8.51}

[A] CCn1cc(-c2cc(NC(=O)c3ccnc(C(C)(C)C#N)c3)cnc2C)cc(N2CCOCC2)c1=O [Example 332]
[B] CCOc1ncc(-c2cc(NC(=O)c3ccnc(C(C)(C)C#N)c3)ccc2C)cc1N1CCOCC1 [Example 161]
stdin: Out of A and B , name the one with the higher pIC50. // return label of chosen record
stdout: B

* * *

Biological target: b-Raf (V600E) (Homo sapiens (Human), UniProt P15056, V600E)
Details: read-out: b-Raf IC-50; Table 2; AlphaScreen, 3 hours reaction
measure: IC50 (nM)

[I] Cn1cc(-c2cc(NC(=O)c3cccc(C(F)(F)F)c3)ccc2C#N)cc(N2CCOCC2)c1=O
[II] CCOc1ncc(-c2cc(NC(=O)c3ccnc(S(C)(=O)=O)c3)ccc2C)cc1N1CCOCC1
stdin: Out of I and II , name the one with the higher IC50. // return label of chosen record
stdout: I
(I: 3100 nM, II: 0.8 nM)

[A] COc1ncc(-c2cc(NC(=O)c3ccnc(C(C)(C)C#N)c3)cnc2Cl)cc1N1CCOCC1
[B] Cc1ncc(NC(=O)c2ccnc(C(F)(F)F)c2)cc1-c1cncc(N2CCOCC2)c1
[C] Cc1ncc(NC(=O)c2cccc(C(F)(F)F)c2)cc1-c1cnc(O[C@H]2CC[C@@H](O)CC2)c(N2CCOCC2)c1
[D] Cc1ccc(NC(=O)c2cccc(C(F)(F)F)c2)cc1-c1cc(N2CCOCC2)ncn1
stdin: Order each entry by recorded IC50, climbing from the minimum. Your answer should be the labels, listed in the requested order.
stdout: D, C, B, A

[A] Cc1ccc(NC(=O)c2ccnnc2)cc1-c1ccnc(N2CCOCC2)c1
[B] Cc1ncc(NC(=O)c2cccc(C(F)(F)F)c2)cc1-c1cnc(O[C@H]2CC[C@H](O)CC2)c(N2CCOCC2)c1
stdin: # query: argmin of IC50 over A and B // return label of chosen record
stdout: B

* * *

Target: b-Raf (V600E) (Homo sapiens (Human), UniProt P15056, V600E)
Conditions: read-out: b-Raf IC-50; AlphaScreen, 60 min pre-incubation, 3 hours reaction
pIC50: −log10 of the molar value.
measure: pIC50

Recorded pIC50, per entry:
{"givenSmiles": "COc1nnc(-c2cc(NC(=O)c3ccnc(C(C)(F)F)c3)cnc2C)cc1N1CCOCC1", "endpointValue": 8.57}
{"givenSmiles": "Cc1ccc(C(=O)Nc2cccc(C(F)F)c2)cc1-c1cc(N2CCOCC2)n(C)c(=O)c1", "endpointValue": 8.96}
{"givenSmiles": "Cc1ccc(C(=O)Nc2cccc(C(C)(C)O)c2)cc1-c1cc(N2CCOCC2)c(=O)n(C)c1", "endpointValue": 8.20}
{"givenSmiles": "Cc1ccc(NC(=O)c2ccnc(C(C)(C)F)c2)cc1-c1cc(N2CCOCC2)c(OC2CCOCC2)nn1", "endpointValue": 9.10}

[1] CCNc1nc(-c2cc(NC(=O)c3ccnc(C4COC4)c3)ccc2C)cc(N2CCOCC2)n1
[2] CCOc1nc(-c2cc(NC(=O)c3ccnc(C(F)(F)F)c3)ccc2C)cc(N2CCOCC2)n1
[3] Cc1ncc(NC(=O)c2ccnc(C(C)(C)C#N)c2)cc1-c1cc(N2CCOCC2)nc(NC[C@H](C)O)n1
stdin: Order each entry by recorded pIC50, climbing from the minimum. Your answer should be the labels, listed in the requested order.
stdout: 3, 1, 2

Source: patent US9694016B2
